- System: Vero-E6
- Experiment Summary: primary screen, phospholipidosis by LipidTOX staining; higher = more effect of the substance
- Condition Notes: 10 µM
- Description: To measure drug-induced PLD in Vero-E6 cells, we used the HCS LipidTOX Red Phospholipidosis Detection Reagent (Invitrogen, #H34351), which is non-toxic to cell growth and remains well retained after aldehyde fixation. […]
Hit rate of the full screen: of about 5,400 compounds, about 190 (3.5%) showed an effect of 50% or more. This excerpt belongs to a sample that is enriched for strong results.
Lab note: compare result_ITMP against 20%. Equal or greater, write true. Smaller, write false.

Before answering, review these 3 worked examples.
CN1C2CC[C@@H]1C[C@@H](OC(=O)[C@H](CO)c1ccccc1)C2 = false
CN1C2CCC1CC(OC(c1ccccc1)c1ccc(Cl)cc1)C2 (stereo not drawn) = true
CN1[C@@H]2CC[C@H]1C[C@@H](OC(=O)C(O)c1ccccc1)C2 (stereo partly drawn) = false

Entry CN1C2CCC1CC(OC(c1ccc(F)cc1)c1ccc(F)cc1)C2 (stereo not drawn) : is its result_ITMP no less than 20%? true

Entry COc1ccc(CNCc2cccc3ccccc23)cc1 : is its result_ITMP no less than 20%? false

Entry Cc1c(S(=O)(=O)[O-])oc2c1C(=O)C(=O)c1c-2ccc2c1CCCC2(C)C : is its result_ITMP no less than 20%? false

Entry CN1[C@@H]2CC[C@H]1C[C@@H](OC(c1ccccc1)c1ccccc1)C2 : is its result_ITMP no less than 20%? true

Entry CC(C(=O)OC1CC2CCC(C1)N2C)c1ccc(Br)cc1 (stereo not drawn) : is its result_ITMP no less than 20%? true

----------
- Test system: Vero-E6
- Experiment Summary: primary screen, phospholipidosis by LipidTOX staining; higher = more effect of the substance
- Condition Notes: 10 µM
The whole screen tested about 5,400 compounds, of which about 190 (3.5%) showed an effect of 50% or more. This excerpt belongs to a sample that is enriched for strong results.
Property Name: result_ITMP (%)
Give bare numbers, in %.

Some molecules with known result_ITMP results, for comparison:
CCOc1cc2ncc(C#N)c(Nc3ccc(OCc4ccccn4)c(Cl)c3)c2cc1NC(=O)/C=C/CN(C)C = 0.53
CC/C(=C(\c1ccccc1)c1ccc(OCCN(C)C)cc1)c1ccccc1 = 49.4
CN1c2c(nc(N)[nH]c2=O)NC[C@@H]1CNc1ccc(C(=O)N[C@@H](CCC(=O)[O-])C(=O)[O-])cc1 = -7.73

Hello, I would appreciate it if you could give result_ITMP for each entry below.
1. CC(C)(C)[C@]1(O)C[C@@H]2OC(=O)C[C@@]23C(=O)O[C@@H]2OC(=O)[C@H](O)C213 (some centres unmarked)
2. CCN(CC)CCOc1ccc(/C(=C(\Cl)c2ccccc2)c2ccccc2)cc1

-3.55
108

----------
- Tested on: Vero-E6
- Experiment Summary: primary screen, phospholipidosis by LipidTOX staining; higher = more effect of the substance
- Condition Notes: 10 µM
In all, about 5,400 compounds went through this assay and about 190 (3.5%) showed an effect of 50% or more. The full list was thinned out, with strong results kept by preference.
Lab note: compare result_ITMP against 10%. Equal or greater, write Met. Smaller, write Not met.

Entry Cc1ncc(NC(=O)c2ccc(CN3CCN(C)CC3)c(C(F)(F)F)c2)cc1Nc1nccc(-c2cccnc2)n1 : is its result_ITMP no less than 10%? Not met

Entry C=C[C@]1(C)C[C@@H](OC(=O)CS[C@@H]2C[C@H]3CC[C@@H](C2)N3C)[C@]2(C)[C@H](C)CC[C@]3(CCC(=O)[C@H]32)[C@@H](C)[C@@H]1O : is its result_ITMP no less than 10%? Met

Entry Cc1ccc(C(=O)Nc2cccc(C(F)(F)F)c2)cc1Nc1nc(-c2cccnc2)nc2c1cnn2C : is its result_ITMP no less than 10%? Not met

----------
- Tested on: Vero-E6
- Experiment Summary: primary screen, phospholipidosis by LipidTOX staining; higher = more effect of the substance
- Condition Notes: 10 µM
In all, about 5,400 compounds went through this assay and about 190 (3.5%) showed an effect of 50% or more. The entries come from a sample that favours strong results as a whole.
Property Name: result_ITMP (%)
Numbers only, in %.

Hello, I would appreciate it if you could give result_ITMP for each entry below.
1. Cc1cc(Nc2ncc(Cl)c(Nc3ccccc3S(=O)(=O)C(C)C)n2)c(OC(C)C)cc1C1CCNCC1
2. NC(N)=N/C(N)=N/CCc1ccccc1
3. O=C(CN1C2=NCCN2c2ccccc21)c1ccc(-c2ccccc2)cc1
4. OC[C@H]1O[C@@](CO)(O[C@H]2O[C@H](CO)[C@@H](O)[C@H](O)[C@H]2O)[C@@H](O)[C@@H]1O
5. CN(C(=O)Cc1ccccc1)C(CN1CCCC1)c1ccccc1 (stereo not drawn)
6. COc1cc(N2CCC(N3CCN(C)CC3)CC2)ccc1Nc1ncnc(Nc2ccccc2S(=O)(=O)C(C)C)n1

[50.9, -1.11, 53.9, -5.71, 6.1, 44.8]

Hello, I would appreciate it if you could give result_ITMP for each entry below.
1. CN1CCC[C@@H]1CCO[C@](C)(c1ccccc1)c1ccc(Cl)cc1
2. C[C@@H](O)[C@H]1C(=O)N2C(C(=O)[O-])=C([C@H]3CCCO3)S[C@H]12
3. CSc1ccccc1Nc1nc(N2CCNCC2)nc2c(NCC3CC3)ncnc12
4. C[N+](C)(C)CC(=O)[O-]
5. CC1=C(/C=C/C(C)=C/C=C/C(C)=C/C(=O)O)C(C)(C)CCC1
6. CO/N=C(/C(=O)N[C@@H]1C(=O)N2C(C(=O)[O-])=C(CSc3nc(=O)c([O-])nn3C)CS[C@H]12)c1csc(N)n1
7. CNCCCC12CCC(c3ccccc31)c1ccccc12
8. O=C([O-])CN1CCN(CC(=O)[O-])CCN(C(CO)C(O)CO)CCN(CC(=O)[O-])CC1.[Gd+3] (stereo not drawn)

90.6
-1.64
79.3
-1.21
4.7
-8.18
107
-1.16

----------
Exercise: for every item that follows, state its recorded result_ITMP.
- Tested on: Vero-E6
- Experiment Summary: primary screen, phospholipidosis by LipidTOX staining; higher = more effect of the substance
- Condition Notes: 10 µM
Hit rate of the full screen: of about 5,400 compounds, about 190 (3.5%) showed an effect of 50% or more. The sample holds strong results, similar compounds and a random draw of the others, so the mix is not that of the screen. Positions of bridges follow the written chain, without caps; N, C: chain ends. Non-standard residues stand in square brackets, D forms with d. Residues, ends and D or L forms follow the SMILES beside them. ξ: configuration not given here. ξThr(3R) = C[C@@H](O)C(N)C(=O)O
Answers are plain numbers, in %.

Some compounds with known result_ITMP results, for comparison:
NC[C@H]1O[C@H](O[C@H]2[C@H](O[C@@H]3O[C@H](CO)[C@@H](O)[C@H]3O)[C@@H](O)[C@H](N)C[C@@H]2N)[C@H](N)[C@@H](O)[C@@H]1O = -1.8
Nc1nc2[nH]nnc2c(=O)[nH]1 = 1.34
CC(C)(N)c1cc(C(=O)N[C@@H]2CCc3ccc(OC4=C5CCC(=O)N=C5NC=C4)cc3C2)cc(C(F)(F)F)c1 = 28.9
C[C@@H]1CC[C@@]2(NC1)O[C@H]1C[C@H]3[C@@H]4CC=C5C[C@@H](O[C@@H]6O[C@H](CO)[C@@H](O[C@@H]7O[C@@H](C)[C@H](O)[C@@H](O)[C@H]7O)[C@H](O)[C@H]6O[C@@H]6O[C@@H](C)[C@H](O)[C@@H](O)[C@H]6O)CC[C@]5(C)[C@H]4CC[C@]3(C)[C@H]1[C@@H]2C = -0.25
CN1CCCC(CC2c3ccccc3Sc3ccccc32)C1 (stereo not shown) = 74.2

Hello, I would appreciate it if you could give result_ITMP for each entry below.
1. COc1ccc2c(c1)N(C[C@H](C)CN(C)C)c1ccccc1S2
2. Cc1nnc(SCC2=C(C(=O)[O-])N3C(=O)[C@@H](NC(=O)Cn4cnnn4)[C@H]3SC2)s1
3. CCC[C@@H]1C[C@@H](C(=O)N[C@@H]([C@H]2O[C@H](SC)[C@H](OP(=O)(O)O)[C@@H](O)[C@H]2O)[C@H](C)Cl)N(C)C1
4. CC(C)(CO)[C@@H](O)C(=O)NCCC(=O)[O-]
5. O=c1ccn([C@@H]2O[C@H](COP(=O)([O-])OP(=O)([O-])OP(=O)([O-])O)C(O)C2O)c(=O)[nH]1 (stereo partly shown)
6. N[C@@H]1[C@H]2CN(c3nc4c(cc3F)c(=O)c(C(=O)O)cn4-c3ccc(F)cc3F)C[C@@H]12
7. C[C@@H]1NC(=O)[C@@H]2CCCN2C(=O)[C@H](CC(N)=O)NC(=O)[C@@H]2CSSC[C@H](N)C(=O)N[C@H]3CSSC[C@H](NC1=O)C(=O)NC([C@@H](C)O)C(=O)NCC(=O)N[C@H](C(=O)N[C@@H](Cc1ccc(O)cc1)C(=O)O)CSSC[C@H](NC(=O)[C@H](Cc1ccc(O)cc1)NC(=O)[C@H](CCC(=O)O)NC3=O)C(=O)N2 (stereo partly drawn) (H-CCEYCCNPAC[ξThr(3R)]GCY-OH; disulfide 1-6, 2-10, 5-13)
8. CC(CN(C)C)CN1c2ccccc2Sc2ccccc21 (stereo not shown)

[53, -0.51, -1.73, 1.43, 0.02, 0.39, -6.32, 81.1]
